B1: PPEF2 (parent)
chain: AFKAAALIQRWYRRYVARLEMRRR

variants of: B1; assay: protein stability index of a GFP-peptide fusion (GPS, HEK-293T) (PSI 1-6); higher = more stable; settings: c terminus: a fixed tail appended;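 further: lentivirally expressed fusions sorted by FACS into six bins by GFP to DsRed ratio, PSI derived from sequencing read proportions per bin multiplied by bin number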
measurement type: protein stability index

| primary sequence | experimental value |
| --- | --- |
| AFKAAALIQRWYRRYVARLEMRWR [R23W] | 1.98 |
| AFKAAALIQRWYRRYVIRLEMRRR [A17I] | 2.96 |
| AFKAAALIQRPYRRYVARLEMRRR [W11P] | 2.62 |
| AFKAAALYQRWYRRYVARLEMRRR [I8Y] | 2.19 |
| AFKAAALAQRWYRRYVARLEMRRR [I8A] | 2.38 |
| AFKAAALIQRWYRRYVFRLEMRRR [A17F] | 2.6 |
| AFKAAALISRWYRRYVARLEMRRR [Q9S] | 2.54 |
| AFKAAALIQRWYRRYVAYLEMRRR [R18Y] | 3.1 |
| AFKAAALIQRWYIRYVARLEMRRR [R13I] | 2.53 |
| AFKAAALIQRWYRMYVARLEMRRR [R14M] | 2.2 |
| AFKAAALIQRWYRRYVARLLMRRR [E20L] | 2.69 |
| AFKAAALIQRWYRRYVARLEMRRQ [R24Q] | 3.32 |
| AFKAAALIQRWYRRYVARNEMRRR [L19N] | 3.12 |
| AFKAAALIQRWYRRYVARLEMMRR [R22M] | 1.75 |
| AFKAAALIQRWYRRYVARLEMRRY [R24Y] | 2.87 |
| HFKAAALIQRWYRRYVARLEMRRR [A1H] | 2.59 |
| AFKAAALIQRWYTRYVARLEMRRR [R13T] | 1.8 |
| AFKAAALDQRWYRRYVARLEMRRR [I8D] | 3.02 |
| AFKAAALHQRWYRRYVARLEMRRR [I8H] | 2.16 |
| AFKARALIQRWYRRYVARLEMRRR [A5R] | 2.39 |
| AFKAAALIQRWYRRYVARWEMRRR [L19W] | 2.13 |
| AFKAAALIQRWYRRYVARLEMRYR [R23Y] | 1.58 |
| FFKAAALIQRWYRRYVARLEMRRR [A1F] | 2.62 |
| AFKAAALIQRWYRRYVARSEMRRR [L19S] | 4.1 |
| AFKAAALIQRWYRRYVCRLEMRRR [A17C] | 2.53 |
| AFKAAALIQRWYRRYKARLEMRRR [V16K] | 4.73 |
| AFKAAALIQRWYRRYVACLEMRRR [R18C] | 2.25 |
| AFKAAALIDRWYRRYVARLEMRRR [Q9D] | 1.86 |
| AFKAAALITRWYRRYVARLEMRRR [Q9T] | 3.39 |
| AFKAAALIQRWYRRYVARLEMLRR [R22L] | 3.12 |
| AMKAAALIQRWYRRYVARLEMRRR [F2M] | 3.8 |
| NFKAAALIQRWYRRYVARLEMRRR [A1N] | 3.6 |
| AFKAAALIQRWYRRYLARLEMRRR [V16L] | 4 |
| AFKAAALIQRWYRRYVYRLEMRRR [A17Y] | 2.76 |
| AFKAAALIQRWYRRGVARLEMRRR [Y15G] | 1.93 |
